Please provide measured inhibition at 25 mg/kg for the entries that follow.
# System: PCA response
# assay explanation: rat Passive Cutaneous Anaphylaxis Test (PCA test)
# Type: in vivo, rat (male Wistar)
# experimental parameters: 0 h, subcutaneous, as sodium salt, 25 mg/Kg, time 0 mins. prior to i.v. ovalbumin challenge
Report as a plain number; the unit % is understood.

Can you share its inhibition at 25 mg/kg? I mean this compound: O=c1[nH]c2ccccc2c(O)c1[N+](=O)[O-] [Example 1, 4-Hydroxy-3-nitrocarbostyril]
9

Can you share its inhibition at 25 mg/kg? I mean this compound: CCc1ccc2[nH]c(=O)c([N+](=O)[O-])c(O)c2c1 [Example 5, 6-Ethyl-4-hydroxy-3-nitro-carbostyril]
19

Can you share its inhibition at 25 mg/kg? I mean this compound: Cc1cccc2[nH]c(=O)c([N+](=O)[O-])c(O)c12 [Example 6 (a), 4-Hydroxy-5-methyl-3-nitrocarbostyril]
5

Can you share its inhibition at 25 mg/kg? I mean this compound: Cn1c(=O)c([N+](=O)[O-])c(O)c2ccccc21 [Example 31, 4-Hydroxy-1-methyl-3-nitro carbostyril]
21

====

# Tested on: PCA response
# assay explanation: rat Passive Cutaneous Anaphylaxis Test (PCA test)
# Assay type: in vivo, rat (male Wistar)
# experimental parameters: 1 h, subcutaneous, as sodium salt, 25 mg/Kg, time 60 mins. prior to i.v. ovalbumin challenge
attribute measured: inhibition at 25 mg/kg (%)
Report as a plain number; the unit % is understood.

Can you share its inhibition at 25 mg/kg? I mean this compound: Cc1ccc2[nH]c(=O)c([N+](=O)[O-])c(O)c2c1 [Example 4, 4-Hydroxy-6-methyl-3-nitrocarbostyril]
15

Can you share its inhibition at 25 mg/kg? I mean this compound: Cc1cccc2[nH]c(=O)c([N+](=O)[O-])c(O)c12 [Example 6 (a), 4-Hydroxy-5-methyl-3-nitrocarbostyril]
1

Can you share its inhibition at 25 mg/kg? I mean this compound: Cc1ccc2c(O)c([N+](=O)[O-])c(=O)[nH]c2c1 [Example 6 (b), 4-hydroxy-7-methyl-3-nitrocarbostyril]
1

Can you share its inhibition at 25 mg/kg? I mean this compound: Cc1cc(C)c2c(O)c([N+](=O)[O-])c(=O)[nH]c2c1 [Example 10]
35

Can you share its inhibition at 25 mg/kg? I mean this compound: O=c1[nH]c2ccc(Cl)cc2c(O)c1[N+](=O)[O-] [Example 3, 6-Chloro-4-hydroxy-3-nitrocarbostyril]
33

Can you share its inhibition at 25 mg/kg? I mean this compound: Cn1c(=O)c([N+](=O)[O-])c(O)c2ccc(Cl)cc21 [Example 36]
-2

Can you share its inhibition at 25 mg/kg? I mean this compound: O=c1[nH]c2c(Cl)cccc2c(O)c1[N+](=O)[O-] [Example 14, 8-Chloro-4-hydroxy-3-nitrocarbostyril]
42

Can you share its inhibition at 25 mg/kg? I mean this compound: Cc1cc2[nH]c(=O)c([N+](=O)[O-])c(O)c2cc1C [Example 15]
27

Can you share its inhibition at 25 mg/kg? I mean this compound: Cc1cc(C)c2[nH]c(=O)c([N+](=O)[O-])c(O)c2c1 [Example 11]
52

Can you share its inhibition at 25 mg/kg? I mean this compound: Cn1c(=O)c([N+](=O)[O-])c(O)c2cc(Cl)ccc21 [Example 34]
8

Can you share its inhibition at 25 mg/kg? I mean this compound: O=c1[nH]c2ccc(Br)cc2c(O)c1[N+](=O)[O-] [Example 8, 6-Bromo-4-hydroxy-3-nitrocarbostyril]
25

Can you share its inhibition at 25 mg/kg? I mean this compound: O=c1[nH]c2c(Br)cccc2c(O)c1[N+](=O)[O-] [Example 13, 8-Bromo-4-hydroxy-3-nitrocarbostyril]
32

Can you share its inhibition at 25 mg/kg? I mean this compound: O=c1[nH]c2ccc([N+](=O)[O-])cc2c(O)c1[N+](=O)[O-] [Example 2, 3,6-Dinitro-4-hydroxycarbostyril]
31

Can you share its inhibition at 25 mg/kg? I mean this compound: CCn1c(=O)c([N+](=O)[O-])c(O)c2cc(Cl)ccc21 [Example 35]
11

Can you share its inhibition at 25 mg/kg? I mean this compound: CCc1cc2[nH]c(=O)c([N+](=O)[O-])c(O)c2cc1CC [Example 17, 6,7-Diethyl-4-hydroxy-3-nitrocarbostyril]
34

Can you share its inhibition at 25 mg/kg? I mean this compound: CCn1c(=O)c([N+](=O)[O-])c(O)c2cc(C)ccc21 [Example 33]
-5

Can you share its inhibition at 25 mg/kg? I mean this compound: CCc1ccc2[nH]c(=O)c([N+](=O)[O-])c(O)c2c1 [Example 5, 6-Ethyl-4-hydroxy-3-nitro-carbostyril]
13

====

Please provide measured inhibition at 25 mg/kg for the entries that follow.
# System: PCA response
# assay explanation: rat Passive Cutaneous Anaphylaxis Test (PCA test)
# Type: in vivo, rat (male Wistar)
# experimental parameters: 0 h, subcutaneous, as sodium salt, 25 mg/Kg, time 0 mins. prior to i.v. ovalbumin challenge
# Experimental: Some of the 4-hydroxycarbostyrils prepared in the preceding examples were tested in the rat Passive Cutaneous Anaphylaxis Test (PCA test), described below. […] 0.1 ml of each of six twofold serial dilutions of the serum in 0.9% saline were injected intradermally into separate sites on the shaved dorsal surface of 250-350 g. […] 7.2 Sorenson buffer (P P S ) The rats were killed after 20 minutes and the diameter of the blue wheals at the antibody injection sites were measured. […]
Report as a plain number; the unit % is understood.

For PCA response, provide inhibition at 25 mg/kg of CCn1c(=O)c([N+](=O)[O-])c(O)c2ccccc21 [Example 30, 1-Ethyl-4-hydroxy-3-nitro carbostyril] please.
9

For PCA response, provide inhibition at 25 mg/kg of "Cc1cc(C)c2[nH]c(=O)c([N+](=O)[O-])c(O)c2c1" please.
11

For PCA response, provide inhibition at 25 mg/kg of O=c1[nH]c2c(Cl)cccc2c(O)c1[N+](=O)[O-] [Example 14, 8-Chloro-4-hydroxy-3-nitrocarbostyril] please.
18

For PCA response, provide inhibition at 25 mg/kg of "CCn1c(=O)c([N+](=O)[O-])c(O)c2cc(C)ccc21" please.
-12

For PCA response, provide inhibition at 25 mg/kg of O=c1[nH]c2ccc(Cl)cc2c(O)c1[N+](=O)[O-] [Example 3, 6-Chloro-4-hydroxy-3-nitrocarbostyril] please.
-39

For PCA response, provide inhibition at 25 mg/kg of Cc1cccc2c(O)c([N+](=O)[O-])c(=O)[nH]c12 [Example 7, 4-Hydroxy-8-methyl-3-nitrocarbostyril] please.
23

For PCA response, provide inhibition at 25 mg/kg of O=c1[nH]c2cc(Cl)ccc2c(O)c1[N+](=O)[O-] [Example 16, 7-Chloro-4-hydroxy-3-nitrocarbostyril] please.
-3

For PCA response, provide inhibition at 25 mg/kg of O=c1[nH]c2ccc([N+](=O)[O-])cc2c(O)c1[N+](=O)[O-] [Example 2, 3,6-Dinitro-4-hydroxycarbostyril] please.
4

For PCA response, provide inhibition at 25 mg/kg of "Cc1ccc(C)c2c(O)c([N+](=O)[O-])c(=O)[nH]c12" please.
7

For PCA response, provide inhibition at 25 mg/kg of "Cc1cc2[nH]c(=O)c([N+](=O)[O-])c(O)c2cc1C" please.
62

For PCA response, provide inhibition at 25 mg/kg of "Cc1ccc2c(c1)c(O)c([N+](=O)[O-])c(=O)n2C" please.
-12

For PCA response, provide inhibition at 25 mg/kg of "CCn1c(=O)c([N+](=O)[O-])c(O)c2cc(Cl)ccc21" please.
-8

For PCA response, provide inhibition at 25 mg/kg of "Cc1cc2c(O)c([N+](=O)[O-])c(=O)n(C)c2cc1C" please.
13

For PCA response, provide inhibition at 25 mg/kg of Cc1ccc2[nH]c(=O)c([N+](=O)[O-])c(O)c2c1 [Example 4, 4-Hydroxy-6-methyl-3-nitrocarbostyril] please.
14

For PCA response, provide inhibition at 25 mg/kg of CCc1cc2[nH]c(=O)c([N+](=O)[O-])c(O)c2cc1CC [Example 17, 6,7-Diethyl-4-hydroxy-3-nitrocarbostyril] please.
25

For PCA response, provide inhibition at 25 mg/kg of "Cn1c(=O)c([N+](=O)[O-])c(O)c2cc(Cl)ccc21" please.
-5

====

# Tested on: PCA response
# assay explanation: rat Passive Cutaneous Anaphylaxis Test (PCA test)
# Type: in vivo, rat (male Wistar)
# experimental parameters: 0 h, subcutaneous, as sodium salt, 25 mg/Kg, time 0 mins. prior to i.v. ovalbumin challenge
attribute measured: inhibition at 25 mg/kg (%)
Report as a plain number; the unit % is understood.

Can you share its inhibition at 25 mg/kg? I mean this compound: O=c1[nH]c2c(Br)cccc2c(O)c1[N+](=O)[O-] [Example 13, 8-Bromo-4-hydroxy-3-nitrocarbostyril]
36

Can you share its inhibition at 25 mg/kg? I mean this compound: O=c1c([N+](=O)[O-])c(O)c2ccccc2n1-c1ccccc1 [Example 37, 4-Hydroxy-3-nitro-1-phenylcarbostyril]
-2

Can you share its inhibition at 25 mg/kg? I mean this compound: O=c1[nH]c2ccc(Br)cc2c(O)c1[N+](=O)[O-] [Example 8, 6-Bromo-4-hydroxy-3-nitrocarbostyril]
5

Can you share its inhibition at 25 mg/kg? I mean this compound: "Cn1c(=O)c([N+](=O)[O-])c(O)c2ccc(Cl)cc21"
-4

Can you share its inhibition at 25 mg/kg? I mean this compound: "Cc1cc(C)c2c(O)c([N+](=O)[O-])c(=O)[nH]c2c1"
0

Can you share its inhibition at 25 mg/kg? I mean this compound: "Cc1ccc2c(O)c([N+](=O)[O-])c(=O)[nH]c2c1C"
9

Can you share its inhibition at 25 mg/kg? I mean this compound: Cc1ccc2c(O)c([N+](=O)[O-])c(=O)[nH]c2c1 [Example 6 (b), 4-hydroxy-7-methyl-3-nitrocarbostyril]
12
